- Tested on: AMARE
- procedure.text: Biological efficacy, post-emergence glasshouse test (Table 2)
- Type: in vivo
- condition.summary: 1000 g/ha, after 12 days
observation.type: score (100=total damage to plant, 0=no damage to plant)
Lab note: jot the number down without any unit.

INSERT INTO assay_data (compound, numeric_value) VALUES
  ('COc1ccccc1C(F)(F)C(=O)O [Compound 1-9]', 90);

Write down the reported score (100=total damage to plant, 0=no damage to plant) of O=C(O)C(F)(F)c1ccc(OC(F)(F)F)c(Br)c1 [Compound 1-20] , test system: AMARE.
70

Next compound: CCOC(=O)C(F)(F)c1cccc2ccccc12 [Compound 3-397, Ethyl 2,2-difluoro-2-(1-naphthyl)acetate]
40

Ok, now Nc1cccc(C(F)(F)C(=O)O)c1 [Compound 1-8]
10

Queued: N.N#Cc1cccc(C(F)(F)C(=O)O)c1Cl [Compound 7-231]
90

* * *

- System: weeds and/or crops
- procedure.text: Post-emergence biological efficacy (Table 4)
- Format: in vivo
- condition.summary: Abutilon theophrasti, 312 h, ABUTH, 1000 g/ha, evaluated after 13 days, read-out: damage to plant ABUTH (100=total damage; 0=no damage)
- Description: Seeds of weeds and/or crops were sown in standard soil in pots. […] The test plants were then grown under controlled conditions in the glasshouse (at 24/18° C., day/night; 15 hours light; 50% humidity) and watered twice daily. After 13 days the test was evaluated (100=total damage to plant; 0=no damage to plant).
observation.type: pest or weed control at 1000 g/ha (%)
Dear colleague, please return just the value in %, with no unit written.

INSERT INTO results (smiles_representation, numeric_value) VALUES
  ('CCOC(=O)C(F)(F)c1c(Cl)cccc1[N+](=O)[O-]', 10),
  ('N#Cc1c(Cl)cccc1C(F)(F)C(=O)O', 80),
  ('C=Cc1cccc(C(F)(F)C(=O)O)c1Cl', 80),
  ('C#Cc1cccc(C(F)(F)C(=O)O)c1Cl', 90),
  ('O=C(O)C(F)(F)c1cccc([N+](=O)[O-])c1Cl', 0);

// below: pest or weed control at 1000 g/ha requested for another compound
Look up pest or weed control at 1000 g/ha for this compound: COc1c(Cl)cc(Cl)c(Cl)c1C(F)(F)C(=O)O
20

* * *

- System: IPOHE
- procedure.text: Pre-emergence biological efficacy (Table 3)
- Assay type: in vivo
- condition.summary: Ipomoea hederacea, 312 h, 1000 g/ha, after 13 days, read-out: evaluation (100=total damage to plant; 0=no damage to plant)
- Description: Seeds of weeds and/or crops were sown in standard soil in pots. […] The test plants were then grown under controlled conditions in the glasshouse (at 24/18° C., day/night; 15 hours light; 50% humidity) and watered twice daily. After 13 days the test was evaluated (100=total damage to plant; 0=no damage to plant).
Items are presented alongside their recorded pest or weed control at 1000 g/ha.
Enter your answer as a number in %; do not include the unit.

INSERT INTO measurements (compound, observation_type, numeric_value) VALUES
  ('O=C(O)C(F)(F)c1cc(-c2ccc(F)cc2)ccc1Cl', 'pest or weed control at 1000 g/ha', 10),
  ('CCOC(=O)C(F)(F)c1cccc2ccccc12 [Compound 3-397, Ethyl 2,2-difluoro-2-(1-naphthyl)acetate]', 'pest or weed control at 1000 g/ha', 0),
  ('Nc1c(Cl)cc(Cl)c(Cl)c1C(F)(F)C(=O)O', 'pest or weed control at 1000 g/ha', 10),
  ('Nc1ccc(Cl)c(C(F)(F)C(=O)O)c1', 'pest or weed control at 1000 g/ha', 0);

What value of pest or weed control at 1000 g/ha has been reported for the following compound? N#Cc1c(F)cccc1C(F)(F)C(=O)O
40

Further, for O=C(O)C(F)(F)c1cccc2c1CCO2 ?
70

Here is the next compound: COC(=O)C(F)(F)c1c(Cl)cccc1OC
70

Moving on to the next compound: O=C(O)C(F)(F)c1c(Cl)cccc1[N+](=O)[O-]
30

Please answer likewise for O=C(O)C(F)(F)c1cc(Cl)cc([N+](=O)[O-])c1Cl
0

* * *

- System: IPOHE
- procedure.text: Pre-emergence biological efficacy (Table 3)
- Type: in vivo
- condition.summary: Ipomoea hederacea, 312 h, 1000 g/ha, after 13 days, read-out: evaluation (100=total damage to plant; 0=no damage to plant)
Reported values of pest or weed control at 1000 g/ha for individual entries
// return numeric value only (unit: %, not printed)

Examples with answers:
INSERT INTO assay_data (smiles_representation, subject_of_test, units_text, numeric_value) VALUES
  ('COc1cccc(Cl)c1C(F)(F)C(=O)O', 'IPOHE', '%', 40),
  ('O=C(O)C(F)(F)c1cccc(Cl)c1OC(F)F', 'IPOHE', '%', 70),
  ('COc1c(Cl)cc(Cl)c(Cl)c1C(F)(F)C(=O)O', 'IPOHE', '%', 20),
  ('CSc1cccc(C(F)(F)C(=O)O)c1Cl', 'IPOHE', '%', 70);

Which value of pest or weed control at 1000 g/ha has been reported for CCOC(=O)C(F)(F)c1c(Cl)cccc1[N+](=O)[O-] in the records?
20

* * *

- Test system: weeds and/or crops
- procedure.text: Post-emergence biological efficacy (Table 4)
- Assay type: in vivo
- condition.summary: Amaranthus retroflexus, 312 h, AMARE, 1000 g/ha, evaluated after 13 days, read-out: damage to plant AMARE (100=total damage; 0=no damage)
pest or weed control at 1000 g/ha values for the molecules below.
Respond numerically; units are % and should not be typed.

INSERT INTO measurements (smiles_representation, numeric_value) VALUES
  ('O=C(O)C(F)(F)c1cc(-c2ccc(F)cc2)ccc1Cl', 50),
  ('CCOC(=O)C(F)(F)c1cccc2cccc(C(F)(F)C(=O)OCC)c12', 20),
  ('O=C(O)C(F)(F)c1c(Cl)cccc1[N+](=O)[O-]', 30);

API: value(readout=pest or weed control at 1000 g/ha, system=weeds and/or crops) for record O=C(O)C(F)(F)c1cccc2c1OC(F)(F)O2
90

Here is the next molecule: O=C(O)C(F)(F)c1c(F)ccc2cccnc12
80

Request: C#Cc1cccc(C(F)(F)C(=O)O)c1Cl
90

Same lookup for Cc1ccc2onc(C)c2c1C(F)(F)C(=O)O , please.
10

Follow-up entry: O=C(O)C(F)(F)c1cc(O)ccc1Cl
10

* * *

- System: AMARE
- procedure.text: Pre-emergence biological efficacy (Table 3)
- Assay type: in vivo
- condition.summary: Amaranthus retroflexus, 312 h, 1000 g/ha, after 13 days, read-out: evaluation (100=total damage to plant; 0=no damage to plant)
Please mark Satisfied if the recorded pest or weed control at 1000 g/ha is equal to or greater than 10%, and Not satisfied if it falls below.

The examples below pair each entry with its known result.
INSERT INTO assay_data (smiles_representation, subject_of_test, label) VALUES
  ('COc1cccc(C(F)(F)C(=O)O)c1C', 'AMARE', 'Satisfied'),
  ('O=C(O)C(F)(F)c1cccc([N+](=O)[O-])c1Cl', 'AMARE', 'Not satisfied'),
  ('O=C(O)C(F)(F)c1c(Cl)cccc1[N+](=O)[O-]', 'AMARE', 'Not satisfied'),
  ('O=C(O)C(F)(F)c1cc(O)ccc1Cl', 'AMARE', 'Satisfied');

Field: next molecule
Given O=C(O)C(F)(F)c1cccc(Cl)c1C1CC1 , state whether its pest or weed control at 1000 g/ha is at least 10%.
Satisfied

* * *

- Tested on: STEME
- procedure.text: Pre-emergence biological efficacy (Table 3)
- Assay type: in vivo
- condition.summary: 312 h, after 13 days, read-out: evaluation (100=total damage to plant; 0=no damage to plant)
Respond with MET for pest or weed control at 1000 g/ha values of 30% and above, NOT MET for values below.

Say whether CCOC(=O)C(F)(F)c1cccc2ccccc12 [Compound 3-397, Ethyl 2,2-difluoro-2-(1-naphthyl)acetate] shows pest or weed control at 1000 g/ha of 30% or more.
MET

// repeat for O=C(O)C(F)(F)c1cccc(O)c1 [Compound 1-5] and report
NOT MET

// query: CSc1cccc(C(F)(F)C(=O)O)c1Cl [Compound 1-220]
MET

How about Nc1ccc(Cl)c(C(F)(F)C(=O)O)c1Cl [Compound 1-236] ?
NOT MET

Queued: O=C(O)C(F)(F)c1cc(Cl)cc([N+](=O)[O-])c1Cl [Compound 1-238]
NOT MET

* * *

- Test system: AMARE
- procedure.text: Pre-emergence biological efficacy (Table 3)
- Format: in vivo
- condition.summary: Amaranthus retroflexus, 312 h, 1000 g/ha, after 13 days, read-out: evaluation (100=total damage to plant; 0=no damage to plant)
Lab note: cut-off is 60%. Strictly less in pest or weed control at 1000 g/ha is Met. Exactly 60% or more is Not met.

INSERT INTO results (molecule, label) VALUES
  ('Nc1cc(Cl)c(Cl)c(C(F)(F)C(=O)O)c1 [Compound 1-77]', 'Met'),
  ('CCc1cccc(C(F)(F)C(=O)O)c1Cl [Compound 1-196]', 'Met'),
  ('O=C(O)C(F)(F)c1cccc2cccc(Cl)c12 [Compound 1-416]', 'Not met');

Hello, is pest or weed control at 1000 g/ha of the following molecule strictly smaller than 60%? Cc1cccc(C(F)(F)C(=O)O)c1C#N [Compound 1-462]
Met
